Examples of molecules with documented TGI follow.
Test system: A498 renal
Assay: NCI tumour cell line growth inhibition, 48 h

O=C(Nc1ccc2[nH]c3c(-c4ccccc4)nccc3c2c1)c1ccccc1[N+](=O)[O-] = 9.47 µM
O=[N+]([O-])c1ccc(OCc2nnc(CCCCCCCCc3nnc(COc4ccc([N+](=O)[O-])cc4)o3)o2)cc1 = > 100 µM
CCOCc1cc(=O)c2cc3c(cc2o1)OC(C)(C)CC3 = > 100 µM
COc1ccc2c(C)cc(C)nc2n1 = > 100 µM

Query: Sample CC1(C(=O)Nc2ccc3cc4ccccc4cc3c2)CC2(C)CC(C)(C1)C(O)NC2=O (stereo not drawn) — what was its TGI?
Result: > 100 µM

Query: Sample `CN1CCN(CC(=O)N2CCCn3c2nc2ccccc2c3=O)CC1` — what was its TGI?
Result: > 100 µM

Query: Sample `NCCNS(=O)(=O)c1ccc(N)cc1` — what was its TGI?
Result: > 100 µM

Query: Sample `COC(=O)c1cc(C)n(CN(Cn2nc(C(=O)OC)cc2C)c2ccccc2)n1` — what was its TGI?
Result: > 100 µM

Query: Sample COc1cc2c3c(c1O)-c1c(ccc(OC)c1OC)CC3N(C)CC2 (stereo not drawn) — what was its TGI?
Result: > 100 µM

Query: Sample `CCOC(=O)Cn1c(=O)[nH]c(=O)c2c1ncn2Cc1ccccc1` — what was its TGI?
Result: > 100 µM

Query: Sample `C=CCN1CN(C2CCCCC2)CSC1=S` — what was its TGI?
Result: 33.2 µM

Query: Sample C=C1CCC(OC(C)=O)C2(C)C(OC(C)=O)CC3OC3(C)C2C(OC(C)=O)C2C(C)C(=O)OC2C1Cl (stereo not drawn) — what was its TGI?
Result: > 100 µM
